Biological target: GPX4 (Homo sapiens, UniProt P36969)
Sequence (P36969 28-197): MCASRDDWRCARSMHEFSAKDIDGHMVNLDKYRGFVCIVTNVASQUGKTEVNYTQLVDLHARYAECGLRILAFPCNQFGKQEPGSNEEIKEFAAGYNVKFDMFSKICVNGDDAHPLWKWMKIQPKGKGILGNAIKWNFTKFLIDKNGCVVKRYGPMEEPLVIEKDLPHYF
Test: GPX4 activity assay in cell lysates (NADPH-coupled)
Format: biochemical
Design: endogenous in cells; host or cells: A-673 cell lysate
Conditions: 2.5 μM
Reported GPX4% inhibition at 2.5 μM by item:
Readout label: GPX4% inhibition at 2.5 μM (%)

{"columns": ["Compound", "Readout label", "Val"],
 "data": [
  ["CN1CCN(Cc2ccc(-c3ccc4c(C(=O)NC(C)(C)COC(=O)CCl)nn(C)c4c3)cc2)CC1", "GPX4% inhibition at 2.5 μM", 80.9],
  ["CC(C)Oc1ccc(-c2ccc3c(C(=O)NC(C)(C)CNC(=O)CCl)nn(C)c3c2)cc1Cl", "GPX4% inhibition at 2.5 μM", 14.0],
  ["C=C(C)C(=O)Nc1ccc(-c2ccc3c(C(=O)NC(C)(C)COC(=O)CCl)nn(C)c3c2)cc1", "GPX4% inhibition at 2.5 μM", 63.8],
  ["COc1ccc(-c2ccc3c(NC(=O)C(C)(C)COC(=O)CCl)nn(C)c3c2)cc1Cl", "GPX4% inhibition at 2.5 μM", "−2.2"],
  ["CC(C)Oc1ccc(-c2ccc3c(C(=O)NC(C)(C)COC(=O)CCl)nn(C)c3c2)cn1", "GPX4% inhibition at 2.5 μM", 76.9],
  ["CCOc1ccc(-c2ccc3c(C(=O)NCC(C)(C)OC(=O)CCl)nn(C)c3c2)cc1Cl", "GPX4% inhibition at 2.5 μM", "−1.0"],
  ["CC=CC(=O)OCC(C)(C)NC(=O)c1nn(C)c2cc(-c3ccc(OC)c(Cl)c3)ccc12", "GPX4% inhibition at 2.5 μM", 31.4],
  ["COc1cc(F)c(-c2ccc3c(C(=O)NC(C)(C)COC(=O)CCl)nn(C)c3c2)cc1Cl", "GPX4% inhibition at 2.5 μM", 65.5],
  ["Cn1nc(-n2cc(C(C)(C)COC(=O)CCl)nn2)c2ccc(-c3ccc(C(F)(F)F)c(Cl)c3)cc21", "GPX4% inhibition at 2.5 μM", 35.1],
  ["COc1ccc(-c2ccc3c(C(=O)NC(C)(C)C(C)OC(=O)CCl)nn(C)c3c2)cc1Cl (racemic)", "GPX4% inhibition at 2.5 μM", 95.3],
  ["COc1c(Cl)cc(-c2ccc3c(C(=O)NC(C)(C)COC(=O)CCl)nn(C)c3c2)cc1Cl", "GPX4% inhibition at 2.5 μM", 98.4],
  ["CSc1ccc(-c2ccc3c(C(=O)NC(C)(C)CNC(=O)CCl)nn(C)c3c2)cc1Cl", "GPX4% inhibition at 2.5 μM", 14.3],
  ["COc1c(Cl)cc(-c2ccc3c(-n4cc(CCOC(=O)CCl)nn4)nn(C)c3c2)cc1Cl", "GPX4% inhibition at 2.5 μM", "−6.6"],
  ["CCOc1ccc(-c2ccc3c(C(=O)NC(C)(C)C(C)(C)OC(=O)CCl)nn(C)c3c2)cc1Cl", "GPX4% inhibition at 2.5 μM", 12.0],
  ["CC(C)Oc1c(Cl)cc(-c2ccc3c(C(=O)NC(C)(C)COC(=O)CCl)nn(C)c3c2)cc1Cl", "GPX4% inhibition at 2.5 μM", 71.4],
  ["COc1ccc(-c2ccc3c(C(=O)NC(C)(C)C(C)(C)OC(=O)CCl)nn(C)c3c2)cc1Br", "GPX4% inhibition at 2.5 μM", "−31.1"],
  ["COc1ccc(-c2ccc3c(C(=O)NC(C)(C)COC(=O)CBr)nn(C)c3c2)cc1Cl", "GPX4% inhibition at 2.5 μM", 72.2],
  ["COc1ccc(-c2ccc3c(C(=O)NC(C)(C)COC(=O)CCl)nn(C)c3c2)cc1Br", "GPX4% inhibition at 2.5 μM", 81.5]
]}
